Where do these numbers come from? They come from patent US20220324880A1.

Here's a batch of compounds along with measured IC50 for UniProt P51531.
Sequence (P51531 whole entry): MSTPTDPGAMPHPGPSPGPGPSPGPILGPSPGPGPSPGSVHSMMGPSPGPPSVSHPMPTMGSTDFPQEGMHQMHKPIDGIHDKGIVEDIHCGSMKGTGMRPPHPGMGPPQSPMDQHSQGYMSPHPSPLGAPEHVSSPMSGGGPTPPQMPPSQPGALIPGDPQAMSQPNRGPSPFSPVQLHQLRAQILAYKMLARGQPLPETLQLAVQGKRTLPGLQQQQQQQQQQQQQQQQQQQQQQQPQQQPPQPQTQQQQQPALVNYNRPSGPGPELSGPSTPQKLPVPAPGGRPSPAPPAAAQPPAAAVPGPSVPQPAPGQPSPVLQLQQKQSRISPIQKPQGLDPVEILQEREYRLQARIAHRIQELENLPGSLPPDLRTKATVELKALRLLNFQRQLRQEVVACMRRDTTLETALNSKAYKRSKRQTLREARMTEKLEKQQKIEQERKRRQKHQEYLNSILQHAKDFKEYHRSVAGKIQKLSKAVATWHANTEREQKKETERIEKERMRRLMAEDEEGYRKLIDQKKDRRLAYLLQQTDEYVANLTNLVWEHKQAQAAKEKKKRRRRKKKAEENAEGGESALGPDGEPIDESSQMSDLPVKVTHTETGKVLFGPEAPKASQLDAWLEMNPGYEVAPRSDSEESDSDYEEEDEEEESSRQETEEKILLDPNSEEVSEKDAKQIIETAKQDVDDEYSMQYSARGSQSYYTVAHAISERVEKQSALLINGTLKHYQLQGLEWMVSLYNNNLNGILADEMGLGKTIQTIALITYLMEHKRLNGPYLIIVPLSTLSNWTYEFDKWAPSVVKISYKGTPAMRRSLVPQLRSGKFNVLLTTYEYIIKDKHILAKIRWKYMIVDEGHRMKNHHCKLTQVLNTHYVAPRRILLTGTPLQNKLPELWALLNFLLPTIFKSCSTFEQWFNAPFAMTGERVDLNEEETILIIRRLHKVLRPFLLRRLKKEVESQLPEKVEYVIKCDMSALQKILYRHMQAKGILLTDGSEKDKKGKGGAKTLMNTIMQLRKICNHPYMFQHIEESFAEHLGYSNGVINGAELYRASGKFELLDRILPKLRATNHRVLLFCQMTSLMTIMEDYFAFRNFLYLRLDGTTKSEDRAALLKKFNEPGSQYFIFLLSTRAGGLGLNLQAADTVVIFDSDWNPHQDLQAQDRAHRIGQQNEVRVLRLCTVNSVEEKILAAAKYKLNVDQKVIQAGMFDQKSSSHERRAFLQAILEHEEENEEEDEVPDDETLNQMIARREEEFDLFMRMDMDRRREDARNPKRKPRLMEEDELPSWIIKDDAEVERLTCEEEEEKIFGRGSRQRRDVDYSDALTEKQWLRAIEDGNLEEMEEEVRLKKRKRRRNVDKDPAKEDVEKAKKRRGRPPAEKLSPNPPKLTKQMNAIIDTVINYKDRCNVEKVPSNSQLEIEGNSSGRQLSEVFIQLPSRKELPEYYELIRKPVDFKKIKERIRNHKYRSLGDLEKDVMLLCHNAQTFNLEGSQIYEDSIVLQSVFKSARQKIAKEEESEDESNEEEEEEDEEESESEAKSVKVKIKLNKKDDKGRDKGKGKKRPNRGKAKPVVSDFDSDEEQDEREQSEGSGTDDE
PROPERTY LABEL: IC50

Oc1ccccc1-c1cc2cc[nH]c2nn1
1 to 100 µM
Nc1ncc2ccccc2c1C#CC1CCNCC1
101 to 500 µM
